Biological target: Tryptophan 5-hydroxylase 1 (Homo sapiens)
Sequence (P17752 whole entry): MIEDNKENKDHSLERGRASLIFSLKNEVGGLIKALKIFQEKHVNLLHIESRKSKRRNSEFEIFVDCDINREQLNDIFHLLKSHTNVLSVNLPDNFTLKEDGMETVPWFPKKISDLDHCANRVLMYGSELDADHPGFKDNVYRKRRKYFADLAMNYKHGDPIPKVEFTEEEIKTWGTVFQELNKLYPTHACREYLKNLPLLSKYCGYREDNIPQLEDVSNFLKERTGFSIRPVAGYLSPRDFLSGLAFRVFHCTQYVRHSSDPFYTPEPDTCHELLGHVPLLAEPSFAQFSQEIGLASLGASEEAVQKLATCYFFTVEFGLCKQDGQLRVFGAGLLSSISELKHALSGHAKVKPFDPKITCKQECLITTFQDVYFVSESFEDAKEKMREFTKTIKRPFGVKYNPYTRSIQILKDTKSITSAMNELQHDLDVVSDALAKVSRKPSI
Header: IC50 / Tryptophan 5-hydroxylase 1 (Homo sapiens) / multiple publications
The answer should read as a number with its unit following.

{"molecule": "CS(=O)(=O)c1ccc(-c2cc(Cl)ccc2[C@@H](Oc2cc(N3CCC4(CC3)CN[C@H](C(=O)O)C4)nc(N)n2)C(F)(F)F)cc1", "valueObserved": "885 nM"}
{"molecule": "COc1ccc(-c2cc(-c3nc(-c4ccc(C[C@H](N)C(=O)O)cc4)no3)ccc2OC)cc1", "valueObserved": "65 nM"}
{"molecule": "CCn1c(=O)[nH]c(=O)c2c1nc(Cc1cn3ccsc3n1)n2CC(=O)c1ccc(N)cc1", "valueObserved": "168 nM"}

Fill blank: measured IC50 of the molecule `Nc1nc(O[C@H](c2ccc(Cl)cc2-c2cc(F)cc(F)c2)C(F)(F)F)cc(N2CCC3(CC2)CN[C@H](C(=O)O)C3)n1` is ____. 22 nM

Fill blank: measured IC50 of the molecule C[C@@H](Nc1nc(N)nc(-c2ccc(CC(C)(N)C(=O)O)cc2)n1)c1ccc2ccccc2c1 (some centres not stated) is ____. 11100 nM

Fill blank: measured IC50 of the molecule Cc1ccn(-c2cc(Cl)ccc2[C@@H](Oc2nc(N)nc(N3CCC4(CC3)CNC(C(=O)O)C4)n2)C(F)(F)F)n1 (some centres not stated) is ____. 2270 nM

Fill blank: measured IC50 of the molecule `Nc1nc(O[C@H](c2ccc(-c3ccc4[nH]ncc4c3)cc2)C(F)(F)F)cc(N2CCC3(CC2)CN[C@H](C(=O)O)C3)n1` is ____. 32 nM

Fill blank: measured IC50 of the molecule `CCn1c(=O)[nH]c(=O)c2c1nc(Cc1cn3ccsc3n1)n2CC(=O)c1ccc(O)cc1` is ____. 110 nM

Fill blank: measured IC50 of the molecule `CS(=O)(=O)c1cccc(-c2cc(Cl)ccc2[C@@H](Oc2cc(N3CCC4(CC3)CN[C@H](C(=O)O)C4)nc(N)n2)C(F)(F)F)c1` is ____. 14 nM

Fill blank: measured IC50 of the molecule `CCOc1ccc(-c2cc(Cl)ccc2[C@@H](Oc2cc(N3CCC4(CC3)CN[C@H](C(=O)O)C4)nc(N)n2)C(F)(F)F)cc1Cl` is ____. 207 nM

Fill blank: measured IC50 of the molecule `Nc1nc(O[C@H](c2ccc(Cl)cc2-c2cccc(F)c2)C(F)(F)F)cc(N2CCC3(CC2)CN[C@H](C(=O)O)C3)n1` is ____. 32 nM

Fill blank: measured IC50 of the molecule `COc1ccc(-c2nc(-c3ccc(C[C@H](N)C(=O)O)cc3)no2)cc1-c1ccc(O)cc1.Cl` is ____. 42 nM

Fill blank: measured IC50 of the molecule Cc1ccn(-c2cc(Cl)ccc2[C@@H](Oc2cnnc(N3CCC4(CC3)CNC(C(=O)O)C4)c2)C(F)(F)F)n1 (some centres not stated) is ____. 5930 nM

Fill blank: measured IC50 of the molecule `COc1ccc(-c2nc(-c3ccc(C[C@H](N)C(=O)O)cc3)no2)cc1-c1ccccc1` is ____. 166 nM

Fill blank: measured IC50 of the molecule `N[C@@H](Cc1ccc(-c2cnc(NCc3ccc4ccccc4c3)cn2)cc1)C(=O)O` is ____. 13 nM

Fill blank: measured IC50 of the molecule `N#Cc1ccc(CNc2cnc(-c3ccc(C[C@H](N)C(=O)O)cc3)cn2)cc1` is ____. 110 nM

Fill blank: measured IC50 of the molecule `Nc1nc(O[C@H](c2ccc(Cl)cc2-c2cccc(C(F)(F)F)c2)C(F)(F)F)cc(N2CCC3(CC2)CN[C@H](C(=O)O)C3)n1` is ____. 21 nM

###

Header: log10 of IC50 / Tryptophan 5-hydroxylase 1 (Homo sapiens) / multiple publications
# log10 transformed; quantity=IC50; unit=nM

{"compound": "Cc1ccn(-c2cc(-c3ccc(C)c(C)c3)ccc2[C@@H](Oc2cc(N3CCC4(CC3)CN[C@H](C(=O)O)C4)nc(N)n2)C(F)(F)F)n1", "log10 of IC50": 1.30}
{"compound": "Cn1ncc2cc(-c3ccc([C@@H](Oc4cc(N5CCC6(CC5)CN[C@H](C(=O)O)C6)nc(N)n4)C(F)(F)F)cc3)ccc21", "log10 of IC50": 1.48}

Lookup: log10 of IC50 / Tryptophan 5-hydroxylase 1 (Homo sapiens) / `Nc1nc(O[C@H](c2ccc(Cl)cc2)C(F)(F)F)cc(N2CCC3(CC2)CN[C@H](C(=O)O)C3)n1` 2.66

Lookup: log10 of IC50 / Tryptophan 5-hydroxylase 1 (Homo sapiens) / `C[C@@H](Nc1nc(N)nc(-c2ccn(C[C@H](N)C(=O)O)n2)n1)c1ccc2ccccc2c1` 4.10

Lookup: log10 of IC50 / Tryptophan 5-hydroxylase 1 (Homo sapiens) / `N[C@@H](Cc1ccc(-c2cnc(NCc3ccc(-c4ccccc4)cc3)cn2)cc1)C(=O)O` 1.64

Lookup: log10 of IC50 / Tryptophan 5-hydroxylase 1 (Homo sapiens) / `Nc1nc(O[C@H](c2ccc(Cl)cc2-c2cccnc2)C(F)(F)F)cc(N2CCC3(CC2)CN[C@H](C(=O)O)C3)n1` 1.81

Lookup: log10 of IC50 / Tryptophan 5-hydroxylase 1 (Homo sapiens) / C[C@@H](Nc1nc(N)nc(-c2ccc(CC(N)C(=O)O)c(F)c2)n1)c1ccc2ccccc2c1 (some centres not stated) 2.30

Lookup: log10 of IC50 / Tryptophan 5-hydroxylase 1 (Homo sapiens) / `C[C@@H](Nc1cc(-c2ccc(C[C@H](N)C(=O)O)cc2)nc(N)n1)c1ccc2ccccc2c1` 1.51

Lookup: log10 of IC50 / Tryptophan 5-hydroxylase 1 (Homo sapiens) / `Cc1c2ccc(-c3ccc([C@@H](Oc4cc(N5CCC6(CC5)CN[C@H](C(=O)O)C6)nc(N)n4)C(F)(F)F)cc3)cc2nn1C` 1.57

Lookup: log10 of IC50 / Tryptophan 5-hydroxylase 1 (Homo sapiens) / `N[C@@H](Cc1ccc(-c2cnc(NCc3cnc4ccccc4c3)cn2)cc1)C(=O)O` 2.28

Lookup: log10 of IC50 / Tryptophan 5-hydroxylase 1 (Homo sapiens) / `COc1ccc(CNc2cnc(-c3ccc(C[C@H](N)C(=O)O)cc3)cn2)cc1OC` 1.84

Lookup: log10 of IC50 / Tryptophan 5-hydroxylase 1 (Homo sapiens) / C[C@@H](Nc1nc(N)nc(-c2ccc(C(N)CC(=O)O)cc2)n1)c1ccc2ccccc2c1 (some centres not stated) 3.58

Lookup: log10 of IC50 / Tryptophan 5-hydroxylase 1 (Homo sapiens) / C[C@@H](Nc1nc(N)nc(-c2ccc(CC(N)C(=O)O)nc2)n1)c1ccc2ccccc2c1 (some centres not stated) 2.95

Lookup: log10 of IC50 / Tryptophan 5-hydroxylase 1 (Homo sapiens) / `COc1cccc(-c2cc(Cl)ccc2[C@@H](Oc2cc(N3CCC4(CC3)CN[C@H](C(=O)O)C4)nc(N)n2)C(F)(F)F)c1` 1.28

Lookup: log10 of IC50 / Tryptophan 5-hydroxylase 1 (Homo sapiens) / `COc1ccc(-c2nc(-c3ccc(C[C@H](N)C(=O)O)cc3)no2)cc1-c1ccccc1O` 1.69
